target: PLK2 (Homo sapiens, UniProt Q9NYY3); assay: PLK TR-FRET peptide assay, PLK2; format: biochemical; details: PLK TR-FRET peptide assay, GST-PLK2, 60 min reaction; read-out: Plk2 IC50
Sequence (Q9NYY3 whole entry): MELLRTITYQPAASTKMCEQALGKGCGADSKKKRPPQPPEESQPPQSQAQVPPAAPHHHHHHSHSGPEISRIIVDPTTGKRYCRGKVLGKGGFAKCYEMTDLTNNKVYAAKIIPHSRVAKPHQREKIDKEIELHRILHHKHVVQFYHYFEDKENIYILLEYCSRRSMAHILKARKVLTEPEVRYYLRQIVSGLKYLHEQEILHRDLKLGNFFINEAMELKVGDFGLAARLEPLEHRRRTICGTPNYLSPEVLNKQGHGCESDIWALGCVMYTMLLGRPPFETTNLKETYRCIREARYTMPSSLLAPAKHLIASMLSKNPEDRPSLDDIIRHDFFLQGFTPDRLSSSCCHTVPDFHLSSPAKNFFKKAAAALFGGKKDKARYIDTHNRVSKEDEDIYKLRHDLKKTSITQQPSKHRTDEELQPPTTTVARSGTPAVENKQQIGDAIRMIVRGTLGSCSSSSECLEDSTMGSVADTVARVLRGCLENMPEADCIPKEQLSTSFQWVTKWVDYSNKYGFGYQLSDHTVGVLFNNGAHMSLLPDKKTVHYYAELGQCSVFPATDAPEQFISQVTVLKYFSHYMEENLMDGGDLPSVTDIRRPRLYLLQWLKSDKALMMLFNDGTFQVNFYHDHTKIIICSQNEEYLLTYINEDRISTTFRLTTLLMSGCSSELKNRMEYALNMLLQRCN
pIC50: −log10 of the molar value.
Parameter: pIC50. Scope: all listed entries.

# molecule, studySystem, pIC50
records = [
    ("CC[C@@]12CCCN1c1nc(-c3nccnc3-c3ccccc3)ncc1N(C)C2=O", "PLK2 (Homo sapiens, UniProt Q9NYY3)", "5.00 to 6.00"),
    ("CC[C@@]12CCCN1c1nc(-n3ccnc3-c3cccc(-n4cccn4)c3)ncc1N(C)C2=O", "PLK2 (Homo sapiens, UniProt Q9NYY3)", "> 6.00"),
    ("CC[C@@H]1C(=O)N(C)c2cnc(-c3ccnc(OC)c3)nc2N1C1CCCC1", "PLK2 (Homo sapiens, UniProt Q9NYY3)", "> 6.00"),
    ("[2H]C([2H])([2H])N1C(=O)C(C([2H])([2H])C([2H])([2H])[2H])N(C([2H])(C([2H])([2H])[2H])C([2H])([2H])[2H])c2nc(-n3ccnc3-c3ccc(OC(F)(F)F)cc3)ncc21 (centres unmarked)", "PLK2 (Homo sapiens, UniProt Q9NYY3)", "> 6.00"),
    ("CC[C@@H]1C(=O)N(C)c2cnc(-c3cnoc3-c3nccs3)nc2N1C(C)C", "PLK2 (Homo sapiens, UniProt Q9NYY3)", "4.30 to 5.00"),
    ("CC[C@@H]1C(=O)N(C)c2cnc(-c3cn[nH]c3-c3cscn3)nc2N1C(C)C", "PLK2 (Homo sapiens, UniProt Q9NYY3)", "> 6.00"),
    ("CC[C@@H]1C(=O)N(C)c2cnc(-n3ccnc3-c3ccc(F)cn3)nc2N1C1CCC1", "PLK2 (Homo sapiens, UniProt Q9NYY3)", "> 6.00"),
    ("CC[C@@H]1C(=O)N(C)c2cnc(N3CCNC(=O)C3)nc2N1C1CCCC1", "PLK2 (Homo sapiens, UniProt Q9NYY3)", "4.30 to 5.00"),
]

###

molecular target: PLK3 (Homo sapiens); test: PLK TR-FRET peptide assay, PLK3; assay type: biochemical; conditions: GST-PLK3, 15 min reaction, read-out: Plk3 IC50
Sequence (Q9H4B4 whole entry): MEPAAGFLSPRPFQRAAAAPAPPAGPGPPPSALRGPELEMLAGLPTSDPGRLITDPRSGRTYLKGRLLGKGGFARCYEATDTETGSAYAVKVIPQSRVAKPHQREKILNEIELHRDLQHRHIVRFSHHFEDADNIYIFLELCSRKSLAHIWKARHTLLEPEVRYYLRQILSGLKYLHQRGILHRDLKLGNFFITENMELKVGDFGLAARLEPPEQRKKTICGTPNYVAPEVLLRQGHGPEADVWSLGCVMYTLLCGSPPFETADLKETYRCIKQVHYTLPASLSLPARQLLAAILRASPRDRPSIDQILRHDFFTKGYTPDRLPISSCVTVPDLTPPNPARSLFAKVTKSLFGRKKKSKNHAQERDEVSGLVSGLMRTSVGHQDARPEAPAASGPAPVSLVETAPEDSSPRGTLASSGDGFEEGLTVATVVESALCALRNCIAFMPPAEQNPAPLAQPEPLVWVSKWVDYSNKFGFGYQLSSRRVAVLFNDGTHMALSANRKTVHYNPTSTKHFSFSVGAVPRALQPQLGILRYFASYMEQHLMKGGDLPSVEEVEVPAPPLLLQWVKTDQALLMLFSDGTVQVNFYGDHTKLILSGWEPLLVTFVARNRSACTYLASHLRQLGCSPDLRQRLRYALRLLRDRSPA
pIC50: −log10 of the molar value.
Parameter: pIC50. Scope: all listed entries.
readoutType: pIC50

# molecule, studySystem, readoutType, result
records = [
    ("CC[C@@H]1C(=O)N(C)c2cnc(-c3sc(Br)nc3-c3ccc(F)cc3)nc2N1C(C)C", "PLK3 (Homo sapiens)", "pIC50", "< 4.30"),
    ("CC[C@]12CCCCN1c1nc(-n3ccnc3-c3ccc(F)cc3F)ncc1N(C)C2=O", "PLK3 (Homo sapiens)", "pIC50", "< 4.30"),
    ("CC[C@@H]1C(=O)N(C)c2cnc(-n3ccnc3Cl)nc2N1C1CCCC1", "PLK3 (Homo sapiens)", "pIC50", "4.30 to 5.00"),
    ("CC[C@@H]1C(=O)N(C)c2cnc(-n3ccnc3-c3ccc(F)cn3)nc2N1C1CCC1", "PLK3 (Homo sapiens)", "pIC50", "4.30 to 5.00"),
    ("CC[C@@H]1C(=O)N(C)c2cnc(-n3ncnc3-c3cccc4ncccc34)nc2N1C1CCC1", "PLK3 (Homo sapiens)", "pIC50", "5.00 to 6.00"),
    ("CC[C@@H]1C(=O)N(C)c2cnc(-c3ccncc3NC(=O)OC)nc2N1C(C)C", "PLK3 (Homo sapiens)", "pIC50", "< 4.30"),
    ("CC[C@@H]1C(=O)N(C)c2cnc(-c3ccccc3C(F)(F)F)nc2N1C1CCC1", "PLK3 (Homo sapiens)", "pIC50", "< 4.30"),
    ("CC[C@@H]1C(=O)N(C)c2cnc(-n3ccnc3-c3cccc(F)c3F)nc2N1C1CCOC1 (some centres unmarked)", "PLK3 (Homo sapiens)", "pIC50", "5.00 to 6.00"),
]

###

target: PLK1 (Homo sapiens); assay: PLK TR-FRET peptide assay, PLK1; assay type: biochemical; settings: GST-PLK1, 60 min reaction
Parameter: IC50. Scope: all listed entries.

# moleculeSmiles, IC50
measured = [
    ("CC[C@@H]1C(=O)N(C)c2cnc(-n3ccnc3-c3cc(Cl)cc(Cl)c3)nc2N1C1CCC1", "1 to 10 µM"),
    ("CC[C@@H]1C(=O)N(C)c2cnc(-c3nccnc3-c3ccc(F)cc3)nc2N1C(C)C", "1 to 10 µM"),
    ("CC[C@@H]1C(=O)N(C)c2cnc(-n3ccnc3C)nc2N1C1CCCC1", "1 to 10 µM"),
    ("CC[C@@]12CCCCN1c1nc(-n3ccnc3-c3cc(F)cc(F)c3)ncc1N(C)C2=O", "1 to 10 µM"),
    ("CC[C@@H]1C(=O)N(C)c2cnc(-c3ccccc3-c3ccccc3)nc2N1C1CCCC1", "< 1 µM"),
    ("CCOC(=O)c1cnn(-c2ncc3c(n2)N(C2CCCC2)[C@H](CC)C(=O)N3)c1", "> 50 µM"),
    ("CC[C@@H]1C(=O)N(C)c2cnc(-c3cccc(NS(C)(=O)=O)c3)nc2N1C1CCCC1", "1 to 10 µM"),
    ("CC[C@@]12CCCN1c1nc(-n3ccnc3)ncc1N(C)C2=O", "> 50 µM"),
]

###

Parameter: IC50. Scope: all listed entries.
target: PLK1 (Homo sapiens, UniProt P53350); test: PLK TR-FRET peptide assay, PLK1; assay type: biochemical; details: GST-PLK1, 60 min reaction
Sequence (P53350 whole entry): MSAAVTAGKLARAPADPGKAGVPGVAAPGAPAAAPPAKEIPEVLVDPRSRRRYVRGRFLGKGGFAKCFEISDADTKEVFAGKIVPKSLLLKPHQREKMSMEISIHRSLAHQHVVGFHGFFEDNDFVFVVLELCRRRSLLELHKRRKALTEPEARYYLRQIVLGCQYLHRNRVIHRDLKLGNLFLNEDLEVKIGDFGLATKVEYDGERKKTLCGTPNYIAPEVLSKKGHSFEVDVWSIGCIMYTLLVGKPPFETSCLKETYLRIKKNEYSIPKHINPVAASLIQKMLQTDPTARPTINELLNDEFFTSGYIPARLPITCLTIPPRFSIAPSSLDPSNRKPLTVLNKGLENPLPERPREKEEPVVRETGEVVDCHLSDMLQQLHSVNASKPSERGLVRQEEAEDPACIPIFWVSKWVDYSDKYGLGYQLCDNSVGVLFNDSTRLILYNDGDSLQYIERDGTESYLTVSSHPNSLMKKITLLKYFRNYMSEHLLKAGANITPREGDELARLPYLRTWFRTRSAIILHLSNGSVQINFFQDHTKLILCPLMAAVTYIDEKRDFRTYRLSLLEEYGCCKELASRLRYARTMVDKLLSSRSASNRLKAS
readoutType: IC50

# moleculeSmiles, readoutType, result
measured = [
    ("CC[C@@H]1C(=O)N(C)c2cnc(-c3ccccc3)nc2N1C1CCCC1", "IC50", "1 to 10 µM"),
    ("CC[C@@H]1C(=O)N(C)c2cnc(-c3ccncc3CNC(=O)OC(C)(C)C)nc2N1C1CCCC1", "IC50", "10 to 50 µM"),
    ("CC[C@@]12CCCN1c1nc(-n3ncnc3C#Cc3ccccc3)ncc1N(C)C2=O", "IC50", "> 50 µM"),
    ("CC[C@@H]1C(=O)N(C)c2cnc(-c3cncs3)nc2N1C1CCCC1", "IC50", "< 1 µM"),
    ("CC[C@@]12CCCN1c1nc(-n3ccnc3-c3cccc(-n4cccn4)c3)ncc1N(C)C2=O", "IC50", "10 to 50 µM"),
    ("CC[C@H]1C(=O)N(C)c2cnc(-n3ccnc3-c3ccc(F)cc3)nc2N1c1cccc(C#N)c1", "IC50", "> 50 µM"),
    ("CC[C@@H]1C(=O)N(C)c2cnc(-c3cn[nH]c3)nc2N1C(C)C", "IC50", "1 to 10 µM"),
    ("CC[C@@H]1C(=O)N(C)c2cnc(-n3ccnc3C3=CCCC3)nc2N1C1CCCC1", "IC50", "1 to 10 µM"),
]

###

target: PLK3 (Homo sapiens); assay: PLK TR-FRET peptide assay, PLK3; type: biochemical; details: GST-PLK3, 15 min reaction, read-out: Plk3 IC50
pIC50: −log10 of the molar value.
readoutType: pIC50

# compound, readoutType, result
measured = [
    ("CCC1C(=O)N(C)c2cnc(-n3ccnc3)nc2N1c1cccc(-c2cncnc2)c1 (stereo not drawn)", "pIC50", "< 4.30"),
    ("CC[C@@H]1C(=O)N(C)c2cnc(N3CCN(C)CC3)nc2N1C1CCCC1", "pIC50", "< 4.30"),
    ("[2H]C([2H])([2H])N1C(=O)C(C([2H])([2H])C([2H])([2H])[2H])N(C([2H])(C([2H])([2H])[2H])C([2H])([2H])[2H])c2nc(-n3ccnc3-c3cc(F)cc(F)c3)ncc21 (racemic)", "pIC50", "4.30 to 5.00"),
]

###

biological target: PLK2 (Homo sapiens); assay: PLK TR-FRET peptide assay, PLK2; assay type: biochemical; details: PLK TR-FRET peptide assay, GST-PLK2, 60 min reaction; read-out: Plk2 IC50
pIC50: −log10 of the molar value.

# compound, pIC50
records = [
    ("CC[C@@H]1C(=O)N(C)c2cnc(-n3ccnc3-c3ccc(F)cc3)nc2N1C1CCC1", "> 6.00"),
    ("CC[C@@H]1C(=O)N(C)c2cnc(-n3ccnc3-c3ccc(F)cc3Cl)nc2N1CCC(F)(F)F", "> 6.00"),
    ("CC[C@@H]1C(=O)N(C)c2cnc(-n3ccnc3-n3ccccc3=O)nc2N1C1CCCC1", "> 6.00"),
    ("CC[C@@]12CCCN1c1nc(-n3ccnc3-c3cccc(F)c3)ncc1N(C)C2=O", "> 6.00"),
    ("CC[C@@H]1C(=O)N(C)c2cnc(-c3ccncc3NC(=O)CC(C)(C)C)nc2N1C1CCCC1", "4.30 to 5.00"),
    ("CN1C(=O)C2(CC(F)(F)F)CCCN2c2nc(-n3ccnc3)ncc21 (centres unmarked)", "4.30 to 5.00"),
    ("CCC12CCCCCN1c1nc(-n3ncnc3-c3ccccc3)ncc1N(C)C2=O (racemic)", "5.00 to 6.00"),
    ("CC[C@@]12CCCCN1c1nc(-n3ccnc3-c3cc(F)cc(F)c3)ncc1N(C)C2=O", "> 6.00"),
]
